assay: Cmax in Sprague-Dawley rat at 10 mg/kg, iv by LC-MS/MS method; format: ADME, organism-based; set-up: dose 10 mg/kg, route intravenous; details: in vivo
metricName: Cmax (ng/mL)
Give a bare numeral; the unit ng/mL is implied.

(Q) What value of Cmax has been reported for the following compound? CC(C)(C)NCC(O)COc1ccc2c(=O)cc(-c3cc(OCc4ccccc4)cc(OCc4ccccc4)c3)oc2c1 (racemic)
(A) 998

====

test system: Mus musculus; test: Antidyslipidemic activity in diabetic C57BL/KsJ db/db mouse model assessed as reduction in plasma cholesterol level at 25 mg/kg, po qd for 10 days; format: functional; parameters: scale not given: the % may be the effect or the level left
metricName: Activity
Provide a numeric answer, followed by its unit.

Sample records with Activity:
| molecule | Activity |
| --- | --- |
| CC(C)NCC(O)COc1ccc2c(=O)cc(-c3cc(O)cc(O)c3)oc2c1 (racemic) | 15.3% |
| CN(CCOc1ccc(CC2SC(=O)NC2=O)cc1)c1ccccn1 (centres undefined) | 32.6% |
| CC(C)(C)NC[C@H](O)COc1ccc2c(=O)cc(-c3cc(OCc4ccccc4)cc(OCc4ccccc4)c3)oc2c1 | 30.7% |

(Q) What value of Activity has been reported for the following molecule? CC(C)(C)NCC(O)COc1ccc2c(=O)cc(-c3cc(OCc4ccccc4)cc(OCc4ccccc4)c3)oc2c1 (racemic)
(A) 22.3%

====

test system: Rattus norvegicus; assay: Antidiabetic activity in sucrose loaded Wistar rat model assessed as reduction in glucose levels at 100 mg/kg, po; assay type: functional
Activity calls are given as the source filed them. The rule behind the calls is not given here.
metricName: Activity

Sample records with Activity:
| compound | observed |
| --- | --- |
| CC(C)(C)NCC(O)COc1ccc2c(=O)cc(-c3ccc(O)c(O)c3)oc2c1 (stereo unspecified) | inactive |
| COc1cc(-c2cc(=O)c3ccc(OCC(O)CNC(C)C)cc3o2)cc(OC)c1OC (stereo unspecified) | 20.7% |
| CC(C)OC(=O)C(C)(C)Oc1ccc(C(=O)c2ccc(Cl)cc2)cc1 [FENOFIBRATE] | 6.43% |
| CC(C)NCC(O)COc1ccc2c(=O)cc(-c3cc(OCc4ccccc4)cc(OCc4ccccc4)c3)oc2c1 (stereo unspecified) | inactive |
| Cc1ccc(COc2cc(OCc3ccc(C)cc3)cc(-c3cc(=O)c4ccc(OCC(O)CNC(C)(C)C)cc4o3)c2)cc1 (stereo unspecified) | 13.6% |

(Q) Find Activity (Rattus norvegicus) for the entry CC(C)(C)NCC(O)COc1ccc2c(=O)cc(-c3cc(OCc4cc(Cl)cc(Cl)c4)cc(OCc4cc(Cl)cc(Cl)c4)c3)oc2c1 (stereo unspecified)
(A) 25.9%

(Q) Find Activity (Rattus norvegicus) for the entry COc1cc(OC)cc(-c2cc(=O)c3ccc(OCC(O)CNC(C)(C)C)cc3o2)c1 (stereo unspecified)
(A) inactive

(Q) Find Activity (Rattus norvegicus) for the entry CN(C)C(=N)NC(=N)N
(A) 22.1%

(Q) Find Activity (Rattus norvegicus) for the entry CC(C)NCC(O)COc1ccc2c(=O)cc(-c3ccc(OCc4ccccc4)c(OCc4ccccc4)c3)oc2c1 (stereo unspecified)
(A) 17.9%

(Q) Find Activity (Rattus norvegicus) for the entry Cc1ccccc1COc1cc(OCc2ccccc2C)cc(-c2cc(=O)c3ccc(OCC(O)CNC(C)(C)C)cc3o2)c1 (stereo unspecified)
(A) 39.1%

(Q) Find Activity (Rattus norvegicus) for the entry Cc1ccc(COc2cc(OCc3ccc(C)cc3)cc(-c3cc(=O)c4ccc(OCC(O)CN(C(C)C)C(C)C)cc4o3)c2)cc1 (stereo unspecified)
(A) 15.7%

(Q) Find Activity (Rattus norvegicus) for the entry CC(C)(C)NCC(O)COc1ccc2c(=O)cc(-c3cc(OCc4ccccc4Cl)cc(OCc4ccccc4Cl)c3)oc2c1 (stereo unspecified)
(A) 14.8%

(Q) Find Activity (Rattus norvegicus) for the entry CC(C)(C)NCC(O)COc1ccc2oc(-c3ccc(OCc4ccccc4)c(OCc4ccccc4)c3)cc(=O)c2c1 (stereo unspecified)
(A) 21.8%

====

assay: Elimination half life in Sprague-Dawley rat at 40 mg/kg, po by LC-MS/MS method; assay type: ADME, organism-based; parameters: dose 40 mg/kg, route oral; settings: in vivo, read-out: beta t1/2 (converted)
metricName: half-life (h)
Give a bare numeral; the unit h is implied.

(Q) What value of half-life has been reported for the following compound? CC(C)(C)NCC(O)COc1ccc2c(=O)cc(-c3cc(OCc4ccccc4)cc(OCc4ccccc4)c3)oc2c1 (racemic)
(A) 19.6

====

This listing pairs compounds with measured Activity.
test system: Mus musculus; experiment: Antihyperglycemic activity in diabetic C57BL/KsJ db/db mouse model assessed as reduction in plasma insulin level in hyperglycemia at 25 mg/kg, po qd for 10 days; type: functional; parameters: scale not given: the % may be the effect or the level left
Give a bare numeral; the unit % is implied.

| compound | observed |
| --- | --- |
| CN(CCOc1ccc(CC2SC(=O)NC2=O)cc1)c1ccccn1 (configuration not stated) | 40.5 |
| CC(C)NC[C@H](O)COc1ccc2c(=O)cc(-c3cc(O)cc(O)c3)oc2c1 | 39.2 |
| CC(C)(C)NCC(O)COc1ccc2c(=O)cc(-c3cc(OCc4ccccc4)cc(OCc4ccccc4)c3)oc2c1 (racemic) | 30.6 |

Here's the next entry for you.
(Q) What value of Activity has been reported for the following compound? CC(C)(C)NC[C@@H](O)COc1ccc2c(=O)cc(-c3cc(OCc4ccccc4)cc(OCc4ccccc4)c3)oc2c1
(A) 18

====

This listing pairs compounds with measured bioavailability.
test: Oral bioavailability in Sprague-Dawley rat at 25 mg/kg by LC-MS/MS method; type: ADME, organism-based; conditions: in vivo
Give a bare numeral; the unit % is implied.

| structureString | unitInfo | bioavailability |
| --- | --- | --- |
| CC(C)(C)NC[C@H](O)COc1ccc2c(=O)cc(-c3cc(OCc4ccccc4)cc(OCc4ccccc4)c3)oc2c1 | % | 27 |

Here's the next entry for you.
(Q) What value of bioavailability has been reported for the following compound? CC(C)NC[C@H](O)COc1ccc2c(=O)cc(-c3cc(O)cc(O)c3)oc2c1
(A) 0.52

====

experiment: Plasma clearance in Sprague-Dawley rat at 10 mg/kg, iv by LC-MS/MS method; format: ADME, organism-based; set-up: dose 10 mg/kg, route intravenous
metricName: clearance (mL/min/kg)
Give a bare numeral; the unit mL/min/kg is implied.

(Q) What value of clearance has been reported for the following compound? CC(C)(C)NCC(O)COc1ccc2c(=O)cc(-c3cc(OCc4ccccc4)cc(OCc4ccccc4)c3)oc2c1 (racemic)
(A) 60.8

====

assay: Mean residence time in Sprague-Dawley rat at 25 mg/kg, po by LC-MS/MS method; format: ADME, organism-based; design: dose 25 mg/kg, route oral; conditions: in vivo
metricName: MRT
Provide a numeric answer, followed by its unit.

| structureString | observed |
| --- | --- |
| CC(C)NC[C@H](O)COc1ccc2c(=O)cc(-c3cc(O)cc(O)c3)oc2c1 | 5.96 h |

Here's the next entry for you.
(Q) What value of MRT has been reported for the following molecule? CC(C)(C)NC[C@H](O)COc1ccc2c(=O)cc(-c3cc(OCc4ccccc4)cc(OCc4ccccc4)c3)oc2c1
(A) 30.3 h

====

test system: Rattus norvegicus; assay: Antidiabetic activity in sucrose loaded Wistar rat model assessed as reduction in glucose levels at 100 mg/kg, po; assay type: functional; design: scale not given: the % may be the effect or the level left
Active and inactive are the calls of the source. The calls are words filed in the database; no cut-off is given here.
metricName: Activity

Sample records with Activity:
| molecule | Activity |
| --- | --- |
| Cc1ccc(COc2cc(OCc3ccc(C)cc3)cc(-c3cc(=O)c4ccc(OCC(O)CNCc5ccccc5)cc4o3)c2)cc1 (stereo not drawn) | 32% |
| CC(C)NCC(O)COc1ccc2c(=O)cc(-c3cc(OCc4cc(Cl)cc(Cl)c4)cc(OCc4cc(Cl)cc(Cl)c4)c3)oc2c1 (stereo not drawn) | 32.7% |
| CC(C)NCC(O)COc1ccc2c(=O)cc(-c3cc(OCc4ccccc4Cl)cc(OCc4ccccc4Cl)c3)oc2c1 (stereo not drawn) | 12.6% |
| CC(C)NCC(O)COc1ccc2c(=O)cc(-c3cc(O)cc(O)c3)oc2c1 (racemic) | 29% |
| Cc1ccccc1COc1cc(OCc2ccccc2C)cc(-c2cc(=O)c3ccc(OCC(O)CNC(C)C)cc3o2)c1 (stereo not drawn) | 4.65% |

(Q) What value of Activity has been reported for the following molecule? CC(C)NCC(O)COc1ccc2c(=O)cc(-c3ccc(O)c(O)c3)oc2c1 (stereo not drawn)
(A) inactive

(Q) What value of Activity has been reported for the following molecule? COc1cc(-c2cc(=O)c3ccc(OCC(O)CNC(C)(C)C)cc3o2)cc(OC)c1OC (stereo not drawn)
(A) inactive

(Q) What value of Activity has been reported for the following molecule? COc1cc(OC)cc(-c2cc(=O)c3ccc(OCC(O)CN4CCN(c5ccccc5)CC4)cc3o2)c1 (stereo not drawn)
(A) inactive
